Data origin: patent US20190241669A1

Please go through the items and note down their pKd.
- studyTarget: Human BCMA (human) (UniProt Q02223)
- experiment: SPR, IgG on chip, huBCMA analyte
pKd is defined as minus the log10 of a concentration measured in mol/L.

Exercise: I would be grateful if you could share the reported pKd for P5C1_VHVL (antibody, V domains shown, IgG; also called PC1) VH: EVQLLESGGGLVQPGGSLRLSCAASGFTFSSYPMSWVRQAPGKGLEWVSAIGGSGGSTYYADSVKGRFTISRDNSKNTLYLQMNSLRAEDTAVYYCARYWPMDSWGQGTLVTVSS VL: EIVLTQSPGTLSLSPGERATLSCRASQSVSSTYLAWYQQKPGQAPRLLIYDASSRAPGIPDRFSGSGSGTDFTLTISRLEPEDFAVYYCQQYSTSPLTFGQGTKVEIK .
Solution: 8.22

Exercise: I would be grateful if you could share the reported pKd for C01_Rd4_0.6nM_C27 (antibody, V domains shown, IgG) VH: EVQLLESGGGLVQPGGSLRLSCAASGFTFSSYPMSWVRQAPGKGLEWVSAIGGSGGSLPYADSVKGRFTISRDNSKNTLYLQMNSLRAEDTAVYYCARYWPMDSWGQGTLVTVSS VL: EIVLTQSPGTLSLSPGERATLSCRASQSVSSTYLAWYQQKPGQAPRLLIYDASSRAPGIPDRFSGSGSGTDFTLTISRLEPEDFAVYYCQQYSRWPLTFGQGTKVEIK .
Solution: 9.52

Exercise: I would be grateful if you could share the reported pKd for A02_Rd4_6nM_C01 (antibody, V domains shown, IgG) VH: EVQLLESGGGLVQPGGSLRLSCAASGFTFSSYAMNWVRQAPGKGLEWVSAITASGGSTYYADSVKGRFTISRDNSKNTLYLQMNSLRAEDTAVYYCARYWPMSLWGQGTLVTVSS VL: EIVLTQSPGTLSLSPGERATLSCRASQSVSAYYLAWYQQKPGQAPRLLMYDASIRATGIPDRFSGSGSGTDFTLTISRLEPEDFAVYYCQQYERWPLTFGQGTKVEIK .
Solution: 10.52

Exercise: I would be grateful if you could share the reported pKd for P5A2_VHVL (antibody, V domains shown, IgG) VH: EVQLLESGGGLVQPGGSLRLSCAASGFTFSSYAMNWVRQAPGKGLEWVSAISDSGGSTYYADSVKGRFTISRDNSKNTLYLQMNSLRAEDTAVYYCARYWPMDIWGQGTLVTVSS VL: EIVLTQSPGTLSLSPGERATLSCRASQSVSSSYLAWYQQKPGQAPRLLMYDASIRATGIPDRFSGSGSGTDFTLTISRLEPEDFAVYYCQQYGSWPLTFGQGTKVEIK .
Solution: 8.25

Exercise: I would be grateful if you could share the reported pKd for A02_Rd4_0.6nM_C18 (antibody, V domains shown, IgG) VH: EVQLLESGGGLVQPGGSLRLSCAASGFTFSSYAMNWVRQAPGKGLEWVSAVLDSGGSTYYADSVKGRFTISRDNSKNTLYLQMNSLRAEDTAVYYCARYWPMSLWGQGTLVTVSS VL: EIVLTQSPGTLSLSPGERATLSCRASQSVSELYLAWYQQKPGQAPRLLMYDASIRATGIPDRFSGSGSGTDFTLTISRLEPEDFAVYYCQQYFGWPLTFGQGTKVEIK .
Solution: 10.32
